Target: Saccharophagus degradans 2-40^T β-glucosidase Bgl1B, recombinant (6 histidine residues at C-terminus), SEQ ID NO: 1 (nucleotide SEQ ID NO: 2) (Saccharophagus degradans)
Sequence (Q21KX3 1-444): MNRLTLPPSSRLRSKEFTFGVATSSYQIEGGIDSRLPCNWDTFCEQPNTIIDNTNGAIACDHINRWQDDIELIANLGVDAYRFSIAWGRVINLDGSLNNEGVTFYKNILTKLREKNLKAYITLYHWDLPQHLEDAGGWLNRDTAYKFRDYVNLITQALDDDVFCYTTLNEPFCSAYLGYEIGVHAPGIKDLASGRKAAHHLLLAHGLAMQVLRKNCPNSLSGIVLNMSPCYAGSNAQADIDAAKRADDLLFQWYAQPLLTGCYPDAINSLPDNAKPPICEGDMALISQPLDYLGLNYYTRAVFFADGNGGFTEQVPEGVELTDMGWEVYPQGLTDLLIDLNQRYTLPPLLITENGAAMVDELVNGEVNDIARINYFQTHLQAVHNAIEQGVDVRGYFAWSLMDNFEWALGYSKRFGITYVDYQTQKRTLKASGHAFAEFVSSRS
Test: Enzymatic reaction rate of Bgl1B for various substrates (Lineweaver-Burk plot)
Type: biochemical
Conditions: pH 6, 40° C., substrate 0.1-0.4% (w/v)
property.measured: Vmax

These recorded examples may help you get a feel for the data.
compound	meas.value
OC[C@H]1O[C@@H](O[C@H]2[C@H]3OC[C@@H]2OC(O)[C@H]3O)[C@H](O)[C@@H](O)[C@H]1O (some centres unmarked) [Agarobiose, agarobiose]	3.1 × 10^−1 U/mg protein
OC[C@H]1O[C@@H](O[C@H]2[C@H](O)[C@@H](O)C(O)O[C@@H]2CO)[C@H](O)[C@@H](O)[C@@H]1O (some centres unmarked) [Cellobiose, cellobiose]	1.6 × 10^1 U/mg protein
OC[C@H]1O[C@@H](O[C@H]2[C@H](O)[C@@H](O)C(O)O[C@@H]2CO)[C@H](O)[C@@H](O)[C@H]1O (some centres unmarked) [Lactose, lactose]	1.0 × 10^0 U/mg protein
OC[C@H]1O[C@@H](O[C@H]2[C@H](O)[C@@H](CO)OC(O)[C@@H]2O)[C@H](O)[C@@H](O)[C@@H]1O (some centres unmarked) [Laminaribiose, laminaribiose]	1.1 × 10^2 U/mg protein

Proceeding to the next compound to report its Vmax.
-- ask Given OC[C@H]1O[C@@H](OC[C@H]2OC(O)[C@H](O)[C@@H](O)[C@@H]2O)[C@H](O)[C@@H](O)[C@@H]1O (some centres unmarked) [Gentiobiose, gentiobiose] , state its recorded Vmax.
-- reply 1.1 × 10^0 U/mg protein
